test: chemical genetic growth profiling, strain panel (AID 1159580);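 note: tested at 20 µM; growth read once vehicle control cultures reached saturation at 30 °C; 1 = growth at the plate median or of vehicle wells; lower values mean less growth of the strain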; details: S. cerevisiae deletion strains, growth OD, strain NNK1
The whole screen tested about 5,500 compounds, of which about 2,000 (36%) were called active. About 18% were inconclusive and are not listed. Cut-off read from the data, not from the text of the source: active = normalized growth mostly below about 0.91 (no sharp cut-off); inconclusive = no clear call, values can overlap the other calls; inactive = mostly above about 0.92. The list shows a part of the results.
Outcome codes: TRUE for active, FALSE for inactive

compound	category
O=C(NCCSCc1ccco1)Nc1cc(Cl)cc(Cl)c1	FALSE
CC(=O)c1sc(SCCS(=O)(=O)c2ccc(C)cc2)c2c1CC(C)(C)CC2=O	FALSE
COc1ccc(C(=O)CSC2=NCCc3ccccc32)cc1	FALSE
CC(C)c1ccc(NC(=S)NC(=O)c2ccccc2)cc1	FALSE
CC(C)c1ccc(NCC(O)CSc2ccccc2)cc1 (centres undefined)	FALSE
S=C(N/N=C\c1ccc(Cl)cc1)N/N=C\c1ccc(Cl)cc1	FALSE
N#CC(C#N)=C/C=C(/Sc1ccc(F)c(Cl)c1)c1ccc(Cl)cc1	FALSE
O=C(Nc1ccc(C(F)(F)F)cc1)N1CCN(c2ccnc3cc(Cl)ccc23)CC1	FALSE
O=[N+]([O-])/C=C/c1ccc(F)cc1	TRUE
CC(C)c1ccc(N2C=Nc3ccc(C(C)C)cc3C2)cc1	FALSE
NC(=Nc1ccc(F)cc1)SCc1c(Cl)cccc1Cl	FALSE
O=[N+]([O-])c1ccccc1CS(=O)(=O)c1nc2ccccc2s1	FALSE
O=C1CSC(c2cccnc2)N1c1ccc(Cl)cc1Cl (centres undefined)	FALSE
O=C(NCCSCc1cccc(C(F)(F)F)c1)Nc1cccc(C(F)(F)F)c1	FALSE
C/C(=C\c1ccc2c(c1)OCO2)[N+](=O)[O-]	TRUE
O=[N+]([O-])c1cc(Br)cnc1Sc1nnc(SCC2CC2)s1	FALSE
Cc1cc(Br)ccc1-n1c(Sc2c([N+](=O)[O-])cc(C(F)(F)F)cc2[N+](=O)[O-])nc2ccccc2c1=O	FALSE
CC(=O)Nc1ccc(/C=C/[N+](=O)[O-])cc1	FALSE
CSc1ccc(/C=C(\C)[N+](=O)[O-])cc1	TRUE

---

test: chemical genetic growth profiling, strain panel (AID 1159580);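 note: tested at 20 µM; growth read once vehicle control cultures reached saturation at 30 °C; 1 = growth at the plate median or of vehicle wells; lower values mean less growth of the strain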; details: S. cerevisiae deletion strains, growth OD, locus YOR083W, strain WHI5 (second series), stronger effect = lower value
In all, about 5,500 compounds went through this assay and about 2,000 (36%) were called active. Inconclusive results (about 18%) are left out. The list shows a part of the results.
In this section, each of the compounds is paired with its reported normalized growth.
endpoint.name: normalized growth

compound	test.value
CC[N+](CC)(CC)CC(=O)Nc1c(C)cccc1C	0.999 (inactive)
CC(C)(C)c1ccc(C(O)CCCN2CCC(C(O)(c3ccccc3)c3ccccc3)CC2)cc1 (configuration not stated)	1.05 (inactive)
CN/C(=C\[N+](=O)[O-])NCCSCc1ccc(CN(C)C)o1	1.02 (inactive)
O=[N+]([O-])c1ccc2nc(N3CCNCC3)ccc2c1	1.01 (inactive)
N=c1c[n+](N2CCOCC2)[n-]o1	1.01 (inactive)
NCCNC(=O)c1ccc(Cl)cc1	0.99 (inactive)
O=C(O)c1ccccc1Nc1cccc(OCc2ccc3ccccc3n2)c1	0.959 (inactive)
O=C(O)c1ccccc1Nc1ccccc1	0.982 (inactive)
Cc1cccc(C)c1NC(=O)C[N+](C)(C)C	1.02 (inactive)
CNc1ncnc2c1ncn2[C@H]1C[C@H](OP(=O)(O)O)[C@@H](COP(=O)(O)O)O1	1.01 (inactive)
CCN(CC)CCNC(=O)c1cc(S(C)(=O)=O)ccc1OC	1 (inactive)
O=C(O)c1cccnc1Nc1cccc(C(F)(F)F)c1	0.992 (inactive)

Data origin: PubChem BioAssay AID1159580
